# inhibition at 1 µM annotations
# TARGET OR TEST SYSTEM: Human PDE4D catalytic domain (Homo sapiens (Human), UniProt Q08499)
# Sequence (Q08499 386-715): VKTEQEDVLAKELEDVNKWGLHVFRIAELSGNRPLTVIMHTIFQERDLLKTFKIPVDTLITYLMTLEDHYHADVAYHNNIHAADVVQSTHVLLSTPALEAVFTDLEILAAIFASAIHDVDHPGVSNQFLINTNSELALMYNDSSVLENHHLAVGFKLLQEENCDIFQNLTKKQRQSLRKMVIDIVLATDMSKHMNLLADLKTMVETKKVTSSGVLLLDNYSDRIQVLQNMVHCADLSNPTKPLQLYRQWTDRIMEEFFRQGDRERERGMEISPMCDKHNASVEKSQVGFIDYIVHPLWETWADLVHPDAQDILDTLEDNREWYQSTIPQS
# METHOD: Scintillation Proximity Assay (SPA), inhibition of PDE4D catalytic domain activity
# Type: biochemical
# CONDITION LABEL: Compound concentration: 1 μM; read-out: PDE4D enzyme activity inhibition rate %
Output spec: scalar in %, unitless text.

>>> result("COCC(=O)N1CCc2cc(OC)c(OC)cc2C1CCc1c[nH]c2ccccc12 (stereo not drawn)")
82.6

QUERY: // query inhibition at 1 µM value for entry COc1cc2c(cc1OC1CCCC1)C(CCc1c[nH]c3ccc(C)cc13)N(C=O)CC2 (stereo not drawn)
RESULT: 21.5

QUERY: // query inhibition at 1 µM value for entry COc1cc2c(cc1OC)C(CCc1c[nH]c3ccccc13)N(CC1CCOCC1)CC2 (stereo not drawn)
RESULT: 6.7
